Recorded pIC50 by entry
- tgt: UniProt:Q06187
- Sequence (Q06187 whole entry): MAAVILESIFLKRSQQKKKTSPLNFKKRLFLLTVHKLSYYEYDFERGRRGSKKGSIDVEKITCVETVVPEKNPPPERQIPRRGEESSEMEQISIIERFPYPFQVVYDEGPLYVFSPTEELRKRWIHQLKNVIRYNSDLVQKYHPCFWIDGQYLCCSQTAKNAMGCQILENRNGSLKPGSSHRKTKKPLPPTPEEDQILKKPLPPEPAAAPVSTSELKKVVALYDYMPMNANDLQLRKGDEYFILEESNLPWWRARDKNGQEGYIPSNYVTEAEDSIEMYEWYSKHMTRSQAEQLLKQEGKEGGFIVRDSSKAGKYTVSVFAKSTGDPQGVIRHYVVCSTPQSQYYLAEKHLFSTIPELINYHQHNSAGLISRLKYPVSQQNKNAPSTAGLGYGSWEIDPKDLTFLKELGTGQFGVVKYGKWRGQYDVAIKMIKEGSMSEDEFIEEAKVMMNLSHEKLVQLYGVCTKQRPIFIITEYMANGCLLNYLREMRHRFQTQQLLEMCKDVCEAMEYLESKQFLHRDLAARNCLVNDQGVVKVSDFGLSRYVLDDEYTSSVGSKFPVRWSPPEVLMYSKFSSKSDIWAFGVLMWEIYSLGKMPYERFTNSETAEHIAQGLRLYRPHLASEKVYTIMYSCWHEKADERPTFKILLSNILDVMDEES
- test.description: Bruton's Tyrosine Kinase (BTK) Inhibition TR-FRET competition assay
- condition.set: inactivated state of BTK; Kinase Tracer 178; 18-24 h at 14° C
pIC50: −log10 of the molar value.
measurement.name: pIC50

- Cn1cc(-c2cc3c(-c4ccc(CNC(=O)N5Cc6ccccc6C5)c(F)c4)ncnc3[nH]2)cn1: 9.22
- CC(C)(C)c1ccc(C(=O)NCc2ccc(-c3ncnc4[nH]c(-c5cnn(CCO)c5)cc34)cc2F)cc1: 9.15
- Cn1cc(-c2cc3c(-c4ccc(CN5Cc6cc(C(C)(C)C)sc6C5=O)c(F)c4)ncnc3[nH]2)cn1: 9.00
